From: ChEMBL document CHEMBL1150657

Test system: Leishmania donovani
Protocol Details: Antileishmanial activity against Leishmania donovani (MHOM/ET/67/L82) promastigotes
Assay type: functional, organism-based
IC50 overview

| Compound | Target System | IC50 |
| --- | --- | --- |
| C=C1CC[C@]2(C)CC[C@]3(C)[C@H]4[C@H](OC(C)=O)C[C@]5(COC(C)=O)[C@@H](C)OC(=O)[C@H]6O[C@H]6[C@H]5[C@]4(C)CC[C@@]3(C(=O)OC)[C@]2(O)C1 | Leishmania donovani | > 100 µM |
| CC[C@H](/C=C/[C@@H](C)[C@H]1CC[C@H]2[C@@H]3CC=C4C[C@@H](O)CC[C@]4(C)[C@H]3CC[C@]12C)C(C)C | Leishmania donovani | > 100 µM |
| C=C1C[C@@H](OC(C)=O)[C@]2(C)CC[C@]3(C)[C@H]4[C@H](OC(C)=O)C[C@]5(COC(C)=O)[C@@H](C)OC(=O)[C@H]6O[C@H]6[C@H]5[C@]4(C)CC[C@@]3(C(=O)OC)[C@]2(O)C1 | Leishmania donovani | > 100 µM |
| O=c1c(O)c(-c2ccc(O)c(O)c2)oc2cc(O)cc(O)c12 | Leishmania donovani | 29.5 µg/mL |
| C=C1C[C@H](C(=O)OC)[C@]2(C)CC[C@]3(C)[C@H]4[C@H](O)[C@@H](O)[C@]5(COC(C)=O)[C@@H](C)[C@@H](OC(C)=O)CC[C@H]5[C@]4(C)CC[C@@]3(O)[C@]2(O)C1 | Leishmania donovani | > 100 µM |
| CC[C@H](/C=C/[C@@H](C)[C@H]1CC[C@H]2[C@@H]3CC=C4C[C@@H](O[C@@H]5O[C@H](CO)[C@@H](O)[C@H](O)[C@H]5O)CC[C@]4(C)[C@H]3CC[C@]12C)C(C)C [STIGMASTEROL GLUCOSIDE] | Leishmania donovani | > 100 µM |
| N=C(N)c1ccc(OCCCCCOc2ccc(C(=N)N)cc2)cc1 | Leishmania donovani | 0.24 µg/mL |
| C=C1C[C@@H](OC(C)=O)[C@]2(C)CC[C@]3(C)[C@H]4[C@H](OC(C)=O)C[C@]5(COC(C)=O)[C@@H](C)OC(=O)[C@H]6O[C@H]6[C@H]5[C@]4(C)C[C@H](OC(C)=O)[C@@]3(C(=O)OC)[C@]2(O)C1 | Leishmania donovani | > 100 µM |
